# credit: patent US20230381333A1

Molecular target: human GLP-1 receptor (human, UniProt P43220 24-463)
Experiment: cell-based or functional assay
Bridge positions count the residues as written; N and C are the ends. Square brackets hold non-standard residues; d marks the D form. Ends that are not written are not given here. * marks the point of attachment. Acetyl(2-(4-imidazolyl)) = O=C(Cc1c[nH]cn1)*; Aib = CC(C)(N)C(=O)O
Recorded measurements of In vitro activity compared to native-type peptide (%), vs GLP-1, one per entry
Numbers only here, please. The scale is %.

Known In vitro activity compared to native-type peptide (%), vs GLP-1 results, listed for orientation:
Y[Aib]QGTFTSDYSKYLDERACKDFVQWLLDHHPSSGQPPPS (bridge 16-20) [triple agonist of SEQ ID NO: 71] : 90.1
{Acetyl(2-(4-imidazolyl))}-[Aib]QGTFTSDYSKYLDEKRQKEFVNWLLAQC (bridge 15-19) [triple agonist of SEQ ID NO: 86] : 28.4
H[Aib]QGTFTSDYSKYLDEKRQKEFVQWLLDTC (bridge 16-20) [triple agonist of SEQ ID NO: 52] : 44.1

Briefly, In vitro activity compared to native-type peptide (%), vs GLP-1 measured for H[Aib]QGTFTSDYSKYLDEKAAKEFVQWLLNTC (bridge 16-20) [triple agonist of SEQ ID NO: 29] : 38.5

Briefly, In vitro activity compared to native-type peptide (%), vs GLP-1 measured for H[Aib]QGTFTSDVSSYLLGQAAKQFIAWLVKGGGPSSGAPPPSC [triple agonist of SEQ ID NO: 3] : 1.8

Briefly, In vitro activity compared to native-type peptide (%), vs GLP-1 measured for {Acetyl(2-(4-imidazolyl))}-[Aib]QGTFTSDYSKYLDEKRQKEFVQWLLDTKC (bridge 15-19) [triple agonist of SEQ ID NO: 89] : 7.1
